target: Human Recombinant Matriptase 2 (Homo sapiens, UniProt Q8IU80); construct: made in house; experiment: Matriptase 2 inhibition, fluorescence based assay (Method I); format: biochemical; conditions: Table A; Ki of Matriptase-2; read-out: Mat-2 Ki

{"columns": ["chemical_structure", "assayed_target", "Ki"],
 "data": [
  ["NCc1ccc2cc(C(=O)OCCS(N)(=O)=O)n(Cc3cc(NS(=O)(=O)Cc4ccccc4)cc4ccccc34)c2n1", "Human Recombinant Matriptase 2 (Homo sapiens, UniProt Q8IU80)", "0.1 to 0.5 µM"],
  ["CN(c1cc(Cn2c(C(=O)O)cc3ccc(CN)nc32)c2ccccc2c1)S(=O)(=O)Cc1ccccc1", "Human Recombinant Matriptase 2 (Homo sapiens, UniProt Q8IU80)", "0.1 to 0.5 µM"],
  ["CN1CCN(CCOC(=O)c2cc3ccc(CN)nc3n2Cc2cc(NS(=O)(=O)Cc3ccccc3)cc3ccccc23)CC1", "Human Recombinant Matriptase 2 (Homo sapiens, UniProt Q8IU80)", "≤ 0.1 µM"],
  ["NCc1ccc2cc(C(=O)OCCC3CCOCC3)n(Cc3cc(NS(=O)(=O)Cc4ccccc4)cc4ccccc34)c2n1", "Human Recombinant Matriptase 2 (Homo sapiens, UniProt Q8IU80)", "0.1 to 0.5 µM"]
]}

---

molecular target: Human Recombinant Matriptase 2 (Homo sapiens); construct: made in house; experiment: Matriptase 2 inhibition, fluorescence based assay (Method I); type: biochemical; details: Table A; Ki of Matriptase-2 given as class symbols; read-out: Mat-2 Ki
pKi: −log10 of the molar value.
As shown below, each of these molecules has a reported pKi value.

{"columns": ["molecule", "pKi"],
 "data": [
  ["COc1ccc2c(Cn3c(C(=O)O)cc4ccc(CN)nc43)cc(NS(=O)(=O)Cc3ccccc3)cc2c1 [Compound 361]", "6.30 to 7.00"],
  ["CN1CCC(COC(=O)c2cc3ccc(CN)nc3n2Cc2cc(N[S@@+]([O-])Cc3ccccc3)cc3ccccc23)CC1 (racemic) [Compound 367]", "5.52 to 6.30"],
  ["CC1(O)CCN(C(=O)Nc2cc(Cn3c(C(=O)O)cc4ccc(CN)nc43)c3ccccc3c2)CC1 [Compound 300]", "5.52 to 6.30"],
  ["CNC(=O)c1cc2ccc(CN)nc2n1Cc1cc(NS(=O)(=O)CC2CCNCC2)cc2ccccc12 [Compound 215]", "6.30 to 7.00"],
  ["CN1CCC(COC(=O)c2cc3ccc(CN)nc3n2Cc2cc(NS(=O)(=O)Cc3ccoc3)cc3ccccc23)CC1 [Compound 207]", "≥ 7.00"],
  ["CN(C)CCOC(=O)c1cc2ccc(CN)nc2n1Cc1cc(NS(=O)(=O)CC[C@@H]2CCCN2)cc2ccccc12 [Compound 284]", "5.52 to 6.30"],
  ["NCc1ccc2cc(C(=O)O)n(Cc3cc(NS(=O)(=O)C4CCCCC4)cc4ccccc34)c2n1 [Compound 279]", "5.52 to 6.30"],
  ["CN1CCC(COC(=O)c2cc3ccc(CN)nc3n2Cc2cc(NS(=O)(=O)Cc3cccc(C#N)c3)cc3ccccc23)CC1 [Compound 221]", "6.30 to 7.00"],
  ["CN1CCC[C@@H]1COC(=O)Nc1cc(Cn2c(C(=O)O)cc3ccc(CN)nc32)c2ccccc2c1 [Compound 336]", "6.30 to 7.00"],
  ["CN(C)CC(=O)Nc1nnc(-c2cc3ccc(CN)nc3n2Cc2cc(NS(=O)(=O)Cc3ccccc3)cc3ccccc23)o1 [Compound 349]", "≥ 7.00"],
  ["NCc1ccc2cc(C(=O)O)n(Cc3cc(NS(=O)(=O)Cc4ccno4)cc4ccccc34)c2n1 [Compound 233]", "6.30 to 7.00"],
  ["NCc1ccc2cc(C(=O)O)n(Cc3cc(NS(=O)(=O)CCn4ccnn4)cc4ccccc34)c2n1 [Compound 228]", "6.30 to 7.00"],
  ["CN1CCC(OC(=O)c2cc3ccc(CN)cc3n2Cc2cc(NS(=O)(=O)Cc3ccccc3)cc3ccccc23)CC1 [Compound 371]", "≥ 7.00"],
  ["CCOC(=O)c1cc2ccc(CN)nc2n1Cc1cc(NS(=O)(=O)CC[C@@H]2CCCN2)cc2ccccc12 [Compound 269]", "5.52 to 6.30"],
  ["NCc1ccc2cc(C(=O)O)n(Cc3cc(NS(=O)(=O)Cc4ccncc4)cc4ccccc34)c2n1 [Compound 245]", "6.30 to 7.00"]
]}

---

Target: Human Recombinant Matriptase 2 (Homo sapiens)
Construct: made in house
Sequence (Q8IU80 1-811): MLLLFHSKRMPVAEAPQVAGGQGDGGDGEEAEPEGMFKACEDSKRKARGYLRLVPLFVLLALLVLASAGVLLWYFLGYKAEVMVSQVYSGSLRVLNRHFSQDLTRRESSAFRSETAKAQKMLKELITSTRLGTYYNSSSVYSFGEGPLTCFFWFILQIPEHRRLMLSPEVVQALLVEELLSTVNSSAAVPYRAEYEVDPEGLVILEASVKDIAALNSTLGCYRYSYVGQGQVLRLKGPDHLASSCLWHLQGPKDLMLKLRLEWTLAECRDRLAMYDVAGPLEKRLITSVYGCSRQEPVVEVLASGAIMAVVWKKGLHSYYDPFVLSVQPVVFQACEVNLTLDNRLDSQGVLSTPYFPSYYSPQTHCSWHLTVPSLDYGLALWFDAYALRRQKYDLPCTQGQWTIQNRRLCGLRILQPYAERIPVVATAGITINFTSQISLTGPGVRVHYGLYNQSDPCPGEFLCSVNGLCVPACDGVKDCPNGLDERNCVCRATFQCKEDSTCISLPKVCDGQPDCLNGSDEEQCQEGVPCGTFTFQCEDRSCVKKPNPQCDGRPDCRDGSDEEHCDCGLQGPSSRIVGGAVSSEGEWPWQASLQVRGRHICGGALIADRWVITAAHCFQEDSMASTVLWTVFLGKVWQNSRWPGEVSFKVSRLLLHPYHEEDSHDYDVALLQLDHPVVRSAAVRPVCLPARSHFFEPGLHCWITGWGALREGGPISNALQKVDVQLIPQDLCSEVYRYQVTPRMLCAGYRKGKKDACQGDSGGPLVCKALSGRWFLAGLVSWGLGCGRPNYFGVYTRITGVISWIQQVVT
Assay: Matriptase 2 inhibition, fluorescence based assay (Method I)
Assay type: biochemical
Conditions: Table A; Ki of Matriptase-2; read-out: Mat-2 Ki

{"columns": ["compound", "Ki"],
 "data": [
  ["CN1CCC(CN(C)C(=O)c2cc3ccc(CN)nc3n2Cc2cc(NS(=O)(=O)Cc3ccccc3)cc3ccccc23)CC1", "≤ 100 nM"],
  ["COCCN1CCC(COC(=O)c2cc3ccc(CN)nc3n2Cc2cc(NS(=O)(=O)Cc3ccsc3)cc3ccccc23)CC1", "≤ 100 nM"],
  ["NCc1ccc2cc(C(=O)OCC[C@H]3CCCCN3)n(Cc3cc(NS(=O)(=O)Cc4ccccc4)cc4ccccc34)c2n1 (racemic)", "≤ 100 nM"],
  ["CNC(=O)c1cc2ccc(CN)nc2n1Cc1cc(NS(=O)(=O)CC[C@@H]2CCCN2)cc2ccccc12", "100 to 500 nM"],
  ["NCc1ccc2cc(C(=O)OC[C@H]3COCCN3)n(Cc3cc(NS(=O)(=O)Cc4ccccc4)cc4ccccc34)c2n1", "≤ 100 nM"],
  ["COC(=O)c1cc2ccc(CN)nc2n1Cc1cc(NS(=O)(=O)Cc2ccccc2)cc2ccccc12", "500 to 3000 nM"],
  ["CC(C)n1ccnc1COC(=O)c1cc2ccc(CN)nc2n1Cc1cc(NS(=O)(=O)Cc2ccccc2)cc2ccccc12", "≤ 100 nM"]
]}

---

biological target: Human Recombinant Matriptase 2 (Homo sapiens, UniProt Q8IU80); construct: made in house; experiment: Matriptase 2 inhibition, fluorescence based assay (Method I); format: biochemical; settings: Table A; Ki of Matriptase-2 given as class symbols; read-out: Mat-2 Ki

{"columns": ["compound", "Ki"],
 "data": [
  ["NCc1ccc2cc(C(=O)O)n(Cc3cc(NS(=O)(=O)CC[C@H]4CCCN4)cc4ccccc34)c2n1", "100 to 500 nM"],
  ["CC1(C)CCN(C(=O)Nc2cc(Cn3c(C(=O)O)cc4ccc(CN)nc43)c3ccccc3c2)CC1", "500 to 3000 nM"],
  ["NCc1ccc2cc(C(=O)O)n(Cc3cc(NS(=O)(=O)Cc4ccccc4C(F)(F)F)cc4ccccc34)c2n1", "100 to 500 nM"],
  ["CN1CCC[C@@H]1COC(=O)Nc1cc(Cn2c(C(=O)O)cc3ccc(CN)nc32)c2ccccc2c1 (racemic) [Compound 335]", "100 to 500 nM"]
]}

---

Collected pKi values appear next to each entry.
biological target: Human Recombinant Matriptase 2 (Homo sapiens, UniProt Q8IU80); construct: made in house; test: Matriptase 2 inhibition, fluorescence based assay (Method I); format: biochemical; settings: Table A; Ki of Matriptase-2; read-out: Mat-2 Ki
pKi: −log10 of the molar value.

{"columns": ["compound", "assayed_target", "pKi"],
 "data": [
  ["NCc1ccc2cc(C(=O)OCCNC(N)=O)n(Cc3cc(NS(=O)(=O)Cc4ccccc4)cc4ccccc34)c2n1", "Human Recombinant Matriptase 2 (Homo sapiens, UniProt Q8IU80)", "6.30 to 7.00"],
  ["CN1CCC(CNC(=O)c2cc3ccc(CN)nc3n2Cc2cc(NS(=O)(=O)Cc3ccsc3)cc3ccccc23)CC1", "Human Recombinant Matriptase 2 (Homo sapiens, UniProt Q8IU80)", "≥ 7.00"],
  ["NCc1ccc2cc(C(=O)O)n(Cc3cc(NS(=O)(=O)Cc4ccccc4)cc4ccccc34)c2n1", "Human Recombinant Matriptase 2 (Homo sapiens, UniProt Q8IU80)", "≥ 7.00"],
  ["CN1CCC[C@H](COC(=O)c2cc3ccc(CN)nc3n2Cc2cc(NS(=O)(=O)Cc3ccccc3)cc3ccccc23)C1 (racemic)", "Human Recombinant Matriptase 2 (Homo sapiens, UniProt Q8IU80)", "≥ 7.00"]
]}
